Numbers sourced from patent US20230192890A1.

I'd appreciate it if you could supply absorbance 490 nm/630 nm values for the items below.
- TARGET_OR_TEST_SYSTEM: T1, full-length recombinant human PAD4 (human, UniProt Q9UM07 1-663)
- T1 construct: also called peptidylarginine deiminase 4
- T1 sequence (Q9UM07 whole entry): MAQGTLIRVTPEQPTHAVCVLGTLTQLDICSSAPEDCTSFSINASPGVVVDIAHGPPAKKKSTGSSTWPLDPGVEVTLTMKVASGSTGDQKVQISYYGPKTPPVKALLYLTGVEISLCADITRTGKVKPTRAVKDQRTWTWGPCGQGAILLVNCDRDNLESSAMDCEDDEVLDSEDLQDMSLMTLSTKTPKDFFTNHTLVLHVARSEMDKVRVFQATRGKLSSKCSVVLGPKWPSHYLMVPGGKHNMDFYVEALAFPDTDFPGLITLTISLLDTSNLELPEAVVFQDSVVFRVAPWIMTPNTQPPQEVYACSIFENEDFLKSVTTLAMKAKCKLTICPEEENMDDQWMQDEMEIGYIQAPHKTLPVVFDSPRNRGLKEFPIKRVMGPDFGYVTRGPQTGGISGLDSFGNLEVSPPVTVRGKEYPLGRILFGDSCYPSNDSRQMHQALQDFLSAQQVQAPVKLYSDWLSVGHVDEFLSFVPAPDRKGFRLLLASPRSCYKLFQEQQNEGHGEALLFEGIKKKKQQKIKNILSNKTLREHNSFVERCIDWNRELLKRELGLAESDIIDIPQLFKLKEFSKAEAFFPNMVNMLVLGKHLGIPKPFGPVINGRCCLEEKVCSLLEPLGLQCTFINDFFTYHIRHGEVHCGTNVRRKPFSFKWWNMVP
- EXPERIMENT_SUMMARY: ELISA, human PAD4 on plate, antibody 0.25 ug/mL
One number for each entry, in OD.

Worked set:
A11 (antibody, IgG1, V domains shown, Chicken variable regions in mouse chimeric antibody (IgG1) expression vectors; also called anti-PAD4 antibody A11; A11 etc) VH: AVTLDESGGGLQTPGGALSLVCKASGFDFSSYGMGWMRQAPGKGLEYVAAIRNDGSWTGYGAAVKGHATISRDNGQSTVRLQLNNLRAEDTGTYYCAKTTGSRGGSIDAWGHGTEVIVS VL: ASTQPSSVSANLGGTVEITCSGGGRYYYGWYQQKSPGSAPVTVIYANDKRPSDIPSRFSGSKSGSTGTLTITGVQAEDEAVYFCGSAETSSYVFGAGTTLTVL :: 2.11
E9 (antibody, IgG1, V domains shown, Chicken variable regions in mouse chimeric antibody (IgG1) expression vectors; also called anti-PAD4 antibody E9; A11 etc) VH: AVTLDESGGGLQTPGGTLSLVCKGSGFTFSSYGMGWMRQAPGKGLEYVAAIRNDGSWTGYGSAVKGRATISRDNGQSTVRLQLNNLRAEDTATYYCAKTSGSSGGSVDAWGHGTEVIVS VL: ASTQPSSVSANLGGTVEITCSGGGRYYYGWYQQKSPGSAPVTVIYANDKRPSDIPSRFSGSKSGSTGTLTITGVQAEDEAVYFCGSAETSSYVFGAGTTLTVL :: 2.08
G9 (antibody, IgG1, V domains shown, Chicken variable regions in mouse chimeric antibody (IgG1) expression vectors; also called anti-PAD4 antibody G9; A11 etc) VH: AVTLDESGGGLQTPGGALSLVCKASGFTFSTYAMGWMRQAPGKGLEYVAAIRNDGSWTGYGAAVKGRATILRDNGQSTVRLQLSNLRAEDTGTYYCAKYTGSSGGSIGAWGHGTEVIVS VL: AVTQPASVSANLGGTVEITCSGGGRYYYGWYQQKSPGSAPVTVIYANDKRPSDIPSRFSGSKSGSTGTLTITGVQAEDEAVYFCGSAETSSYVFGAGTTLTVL :: 2.08

Shifting focus to the binder that follows.
Query :: What value of absorbance 490 nm/630 nm has been recorded for this entry: H7 (antibody, IgG1, V domains shown, Chicken variable regions in mouse chimeric antibody (IgG1) expression vectors; also called anti-PAD4 antibody H7; A11 etc) VH: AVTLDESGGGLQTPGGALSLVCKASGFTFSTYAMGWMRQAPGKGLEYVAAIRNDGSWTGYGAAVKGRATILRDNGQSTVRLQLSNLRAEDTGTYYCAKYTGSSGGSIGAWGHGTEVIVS VL: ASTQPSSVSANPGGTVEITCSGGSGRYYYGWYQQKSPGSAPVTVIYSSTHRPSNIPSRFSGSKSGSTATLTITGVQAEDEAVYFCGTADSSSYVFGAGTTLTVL
Result :: 2.11
